- Read-out: Intercellular Adhesion Molecule 1 (ICAM1), ICAM1 (gene 3383)
- experimental.details: BSK_3C_ICAM1: BioMAP Diversity Plus: 3C Assay for Intercellular Adhesion Molecule 1 (ICAM1) Biomarker Activity (AID 2283003)
- conditions: primary human endothelial cells (HUVEC); actives raise or lower the signal
Active and inactive are the calls of the source. The calls were made as follows: active = hit-call score of the fitted dose curve at least 0.9, where 1 is the maximum; inactive = score below 0.9.
Labels: YES = active, NO = inactive

• COC(=O)c1c(C(F)F)nc(C(F)(F)F)c(C2=NCCS2)c1CC(C)C = NO
• CC(C)N1C(=O)N(c2ccccc2)CSC1=NC(C)(C)C = NO
• CSC(=O)c1c(C(F)F)nc(C(F)(F)F)c(C(=O)SC)c1CC(C)C = NO
• COP(=S)(OC)SCn1nnc2ccccc2c1=O = NO
• CNC(=O)Oc1cccc2ccccc12 = NO
• N#Cc1c(Cl)cccc1Cl = NO
• CC(C)=CC1C(C(=O)OCc2coc(Cc3ccccc3)c2)C1(C)C (stereo not given) = NO
• CCCCC(O)(Cn1cncn1)c1ccc(Cl)cc1Cl (stereo not given) = NO
• CCOc1cc(C(C)(C)C)ccc1C1COC(c2c(F)cccc2F)=N1 (stereo not given) = NO
• CC1(C)C(C=C(Cl)Cl)C1C(=O)OC(C#N)c1cccc(Oc2ccccc2)c1 (stereo not given) = NO
• Nc1c(Cl)c(Cl)nc(C(=O)O)c1Cl = NO
• COCc1cnc(C2=NC(C)(C(C)C)C(=O)N2)c(C(=O)O)c1 (stereo not given) = NO
• CCN(CC)c1nc(C)cc(OP(=S)(OC)OC)n1 = NO
• Cc1ccc(N=CN(C)C=Nc2ccc(C)cc2C)c(C)c1 = YES
• COP(=S)(OC)Oc1ccc([N+](=O)[O-])c(C)c1 = NO
• CC1(C)CCC(=Cc2ccc(Cl)cc2)C1(O)Cn1cncn1 (stereo not given) = NO
• CCOc1nc(C(Cl)(Cl)Cl)ns1 = NO
• O=P(O)(O)CCCl = NO
• CO/N=C(/C1=NOCCO1)c1ccccc1Oc1ncnc(Oc2ccccc2Cl)c1F = NO
• O=C1C2CC=CCC2C(=O)N1SC(Cl)(Cl)Cl (stereo not given) = NO
• CCOc1nc(F)cc2nc(S(=O)(=O)Nc3c(Cl)cccc3Cl)nn12 = NO
• COC(=O)N(C(=O)N1CO[C@@]2(C(=O)OC)Cc3cc(Cl)ccc3C2=N1)c1ccc(OC(F)(F)F)cc1 = NO
• CC(C)N1C(=O)c2ccccc2NS1(=O)=O = NO
• COc1ccc(-c2ccccc2)cc1NNC(=O)OC(C)C = NO
• CCNP(=S)(OC)O/C(C)=C/C(=O)OC(C)C (stereo not given) = NO
